methodNotes: In vivo pharmacokinetics in rats
Set-up: species or system rat
runParameters: male, SD, rat, plasma, po, 10 mg/kg, administered orally, 10 mg/kg, read-out: Cmax
Counter-ions that a name gives are not always drawn.
measuredQuantity: Cmax (ng/mL)
Give the quantity in ng/mL, number only.

Request: Fill in: Cmax of COCCOc1ccc2c(c1)ncn2-c1ccc(NC(=O)Nc2cc(C(C)(C)C)n[nH]2)cc1 [Compound 77 Mesylate] is ___
Result: 1050

---

Would you kindly list GI50 for each of these compounds?
Test system: MOLM-13 (FLT3 ITD+/− mutant type)
methodNotes: In vitro growth inhibition (GI50), MOLM-13
Assay type: cell-based, human
runParameters: Homo sapiens, MOLM-13; Cell lines of leukemia; read-out: GI 50 MOLM-13 FLT3 (ITD+/−)

Request: Fill in: GI50 of COCCOc1ccc2c(c1)ncn2-c1ccc(NC(=O)n2nc(C(C)(C)C)cc2N)cc1 [Compound 120] is ___
Result: 1 to 10 nM

Request: Further, for Cn1nc(C(C)(C)C)cc1NC(=O)Nc1ccc(-n2cnc3ccccc32)cc1 [Compound 100] ?
Result: 0.1 to 1 nM

Request: Further, for CNC(=O)c1cc(Oc2ccc3c(c2)ncn3-c2ccc(NC(=O)n3nc(C(C)(C)C)cc3N)cc2)ccn1 [Compound 127] ?
Result: 100 to 1000 nM

Request: Further, for COc1ncnc2c1ncn2-c1ccc(NC(=O)Nc2cc(C(C)(C)C)on2)cc1 [Compound 58] ?
Result: 10 to 100 nM

---

methodNotes: In vivo pharmacokinetics in rats
Design: species or system rat
runParameters: male, SD, rat, plasma, iv, 5 mg/kg, intravenously, 5 mg/kg, Mean, read-out: Vss
Counter-ions that a name gives are not always drawn.
measuredQuantity: Vd (L/kg)
Give the quantity in L/kg, number only.

Request: Fill in: Vd of COCCOc1ccc2c(c1)ncn2-c1ccc(NC(=O)Nc2cc(C(C)(C)C)n[nH]2)cc1 [Compound 77 Mesylate] is ___
Result: 1.47

---

methodNotes: In vivo pharmacokinetics in rats
Parameters: species or system rat
runParameters: male, SD, rat, plasma, po, 10 mg/kg, administered orally, 10 mg/kg, read-out: AUC(0-t)
Experimental: The pharmacokinetic experiments in rats were performed using compound 77 of the present invention as a representative example. […] The pharmacokinetic parameters (AUC(0-t), AUC(0-∞), T1/2, MRT(0-∞), Cmax, Tmax and F) were calculated using WinNonlin Professional v5.2 (Pharsight USA). In addition, the bioavailability (F) was calculated by the following formula.
Counter-ions that a name gives are not always drawn.
measuredQuantity: AUC(0-t)
Quick note: number first, unit second.

Request: Fill in: AUC(0-t) of COCCOc1ccc2c(c1)ncn2-c1ccc(NC(=O)Nc2cc(C(C)(C)C)n[nH]2)cc1 [Compound 77 Mesylate] is ___
Result: 6770 ng·h/mL

---

methodNotes: In vivo pharmacokinetics in rats
Design: species or system rat
runParameters: male, SD, rat, plasma, po, 10 mg/kg, orally, Mean
Counter-ions that a name gives are not always drawn.
measuredQuantity: MRT (h)
Give the quantity in h, number only.

Request: Fill in: MRT of COCCOc1ccc2c(c1)ncn2-c1ccc(NC(=O)Nc2cc(C(C)(C)C)n[nH]2)cc1 [Compound 77 Mesylate] is ___
Result: 5.68
